Cited source: a melting point compilation (Tetko et al.)

propertyLabel: melting point (°C)

# compound, propertyLabel, resultUnit, endpointResult
rows = [
    ("CC12CCC3C4CCC(=O)C(O)=C4CCC3C1CCC2O (configuration not stated)", "melting point", "°C", 189),
    ("CN1CCC23c4c5ccc(O)c4OC2C(O)CCC3C1C5 (configuration not stated)", "melting point", "°C", 157),
]

I = CC1(C)C2CCC1(C)C(O)C2CCO (configuration not stated)
II = COc1ccccc1C1Nc2nc(C(F)(F)F)nn2C(N)=C1C#N (configuration not stated)
Higher melting point between I and II ? Bench note: the answer is the label of the chosen record.
II
(II: 245 °C, I: 83 °C)

---

propertyLabel: melting point

# molecule, melting point
measured = [
    ("CSC(SC)=C(C#N)C#N", "82 to 84 °C"),
    ("C[C@]12CCC(=O)C[C@@H]1CC[C@@H]1[C@@H]2CC[C@]2(C)C(=O)C=C[C@@H]12", "172 to 173 °C"),
    ("O=S(=O)(Cl)c1ccc(S(=O)(=O)N2CCCC2)cc1", "133 to 134 °C"),
    ("Nc1ccc(Oc2ccc(Br)cc2)nc1", "107 to 109 °C"),
    ("O=C(O)C=Cc1ccc2c(c1)OCO2", "242 to 244 °C"),
    ("OCCN1CCN(c2ncc(Cl)cc2C(F)(F)F)CC1", "58 to 59 °C"),
    ("O=[N+]([O-])c1ccc(-c2csc3nc4ccccc4n23)cc1", "232 to 235 °C"),
    ("O=C(c1ccccc1)c1cc([N+](=O)[O-])ccc1Cl", "83 to 86 °C"),
    ("CC1(c2ccccc2)NC(=O)NC1=O (centres undefined)", "199 to 201 °C"),
    ("S=C=NC(c1ccccc1)(c1ccccc1)c1ccccc1", "138 to 140 °C"),
]

Entry CN1CCOc2cc(C=O)ccc21 has what melting point?
70 to 71 °C

Same question, S=C=Nc1ccc(Oc2ccccc2)nc1 this time
41 to 42 °C

Same question, CCC(C)NC(=O)C(C(F)(F)F)C(F)(F)F (centres undefined) this time
110 to 113 °C

Same question, Cc1nn(Cc2ccc(C(=O)O)o2)c(C)c1Br this time
207 to 208 °C

Same question, Cc1oc(-c2ccccc2)nc1CO this time
117 to 118 °C

---

propertyLabel: melting point

Please review the entries below; each comes with its answer.
# molecule, melting point
records = [
    ("CC(C)(C)OC(=O)N1CCN(c2cc(C(=O)O)ccn2)CC1", "174 to 176 °C"),
    ("O=[N+]([O-])c1cccc(-n2cccc2)c1", "72 to 74 °C"),
]

Entry Cc1cc(C)c(CC(=NOCc2ccccc2)c2cc3cc(Br)ccc3o2)c(C)c1 has what melting point?
126 to 127 °C

Same question, CNC(=Nc1cc(C)ccn1)SC this time
78 to 81 °C

Same question, CS(=O)(=O)C1CS(=O)(=O)CC1O (stereo not drawn) this time
200 to 210 °C

Same question, COC(=O)C(C#N)=C(NC(=O)c1ccccc1)SC this time
129 to 131 °C

Same question, Cc1nc2ccccn2c1CO this time
157 to 158 °C

Same question, CC(C)(C)OC(=O)NC(CC(N)=O)C(=O)O (stereo not drawn) this time
179 to 182 °C

Same question, OCC1(c2ccc(Cl)cc2)CC1 this time
50 to 54 °C

Same question, O=c1c(Br)c(SCc2ccccc2)cnn1-c1ccccc1 this time
137 to 138 °C

---

propertyLabel: melting point

Please review the entries below; each comes with its answer.
# molecule, melting point
data = [
    ("C/C=C/C1Nn2c(nnc2-c2ccccc2OC)S1 (configuration not stated)", "124 to 126 °C"),
    ("Cc1c(C)c(C)c(CO)c(C)c1C", "159 to 163 °C"),
    ("Oc1ccc2c(c1)OCO2", "63 to 65 °C"),
    ("CC1(C)O[C@@H]2[C@H](O1)[C@@H]1C[C@H]2NC1=O", "150 to 152 °C"),
    ("Nc1cccc(C2OCCCO2)c1", "75 to 76 °C"),
]

Read the next record carefully.
Entry NC(=S)c1c[nH]cn1 has what melting point?
205 to 207 °C

---

Below, each entry is listed alongside its reported melting point.

# compound, endpointResult
rows = [
    ("CCC1CC(NC(C)=O)CC(C)(C)N1O (centres undefined)", "142 to 145 °C"),
    ("O=C(O)C1(c2ccc(Cl)cc2Cl)CC1", "140 to 147 °C"),
    ("NC(=S)c1cc(Cl)nc(Cl)c1", "145 to 150 °C"),
]

Read the next record carefully.
Entry CSc1sc(C(=O)O)c(-c2ccc(Cl)cc2)c1C#N has what melting point?
241 to 243 °C

---

propertyLabel: melting point (°C)

Please review the entries below; each comes with its answer.
# compound, propertyLabel, endpointResult
data = [
    ("O=Cc1cc(-c2cccs2)on1", "melting point", 66),
    ("COc1cc([N+](=O)[O-])ccc1Br", "melting point", 104),
    ("O=C(O)CS", "melting point", -11),
    ("Ic1ccc2c(c1)Oc1ccccc1O2", "melting point", 95),
]

A = CCOC(C/N=C/c1ccc(/C=N/CC(OCC)OCC)c([N+](=O)[O-])c1)OCC
B = CC1OC(n2ccc(NC(=O)c3ccc(NC(=O)C(C)(N)CO)cc3)nc2=O)CCC1OC1OC(C)C(N(C)C)C(O)C1O (stereo unspecified)
Higher melting point between A and B ? Bench note: the answer is the label of the chosen record.
B

---

Below, each entry is listed alongside its reported melting point.

# molecule, melting point
records = [
    ("CN1CCN(c2ccc(C=O)cc2)CC1", "57 to 60 °C"),
    ("O=[N+]([O-])c1ccc(N/N=C2\\Cc3c2ccc2ccccc32)c([N+](=O)[O-])c1", "273 to 276 °C"),
    ("O=[N+]([O-])c1cc(Br)cc(Br)c1O", "118 to 119 °C"),
    ("CC(=O)Nc1ccc(C(=O)C2CCNCC2)cc1", "171 to 173 °C"),
]

Entry Cc1csc2ncnc(Cl)c12 has what melting point?
137 to 138 °C

---

Below, each entry is listed alongside its reported melting point.

# molecule, melting point
data = [
    ("CCOC(=O)/C(C#N)=C(/SC)N(C)C", "90 to 94 °C"),
]

Entry COc1cccc2cc(C(=O)Cc3c(C)cc(C)cc3C)oc12 has what melting point?
121 to 122 °C

Same question, O=C(O)c1cc2cccnc2s1 this time
293 to 294 °C

Same question, C/C(=N\CC(O)CO)c1c(O)c2ccccc2n(-c2ccccc2)c1=O (configuration not stated) this time
217 to 218 °C

Same question, O=C1C(=O)N(O)C2CCCCC2N1O (configuration not stated) this time
243 to 245 °C

Same question, Cc1c(C(=O)O)[nH]c2ccccc12 this time
162 to 163 °C

Same question, CC1(C)C=C(C(=O)ON2C(=O)CCC2=O)C(C)(C)N1O this time
175 to 178 °C

---

propertyLabel: melting point (°C)

# compound, resultUnit, endpointResult
rows = [
    ("CC(=O)C(C(=O)OC1CC(C)CCC1C(C)C)C(C)C(C(C)=O)C(=O)OC1CC(C)CCC1C(C)C (stereo unspecified)", "°C", 200),
    ("C=C=C", "°C", -136),
]

I = COc1cc2ccc(=O)oc2c(O)c1O
II = COc1cc(CCN(Cc2cccc(O)c2)C(=O)C(F)(F)F)ccc1O
Higher melting point between I and II ? Bench note: the answer is the label of the chosen record.
I
(I: 231 °C, II: 51 °C)

a = O=c1ccnc2n(-c3ccccc3)[nH]cc1-2
b = Cc1cc(N(C)C)ccc1N=Nc1ccccc1
Higher melting point between a and b ? Bench note: the answer is the label of the chosen record.
a

---

propertyLabel: melting point (°C)

# compound, melting point (°C)
records = [
    ("COc1c(C)c(C)c(OC)c(C=O)c1C", 86),
    ("CCN(CC)C(=O)c1ccccc1C(=O)N(CC)CC", 36),
    ("CCOC(=O)C=Cc1c[nH]c2ccccc12", 120),
    ("O=C(Nc1ccccn1)C(F)(F)C(F)(F)C(F)(F)C(F)(F)C(F)(F)C(F)(F)C(F)(F)C(F)(F)F", 66),
]

P = ClC(Cl)C(Cl)(Cl)C(Cl)(Cl)Cl
Q = CC(=O)NCc1cnccc1C
R = Cc1cc(C(C)(C)C)cc(C)c1I
Please order the records by their reported melting point, lowest number first. # respond with the labels, arranged in the requested order
P, R, Q

1 = CCOC(=O)c1cc2c(s1)Sc1[nH]c(C(=O)OCC)c(N)c1C2c1ccccc1 (configuration not stated)
2 = Cc1cc(S(=O)(=O)Cl)c(Cl)cc1Cl
3 = CCOC(=O)CCCCCC(=O)O
4 = O=c1[nH]c(=O)n(C2CC(O)C(CO)O2)cc1I (configuration not stated)
Place the items in sequence of falling melting point. # respond with the labels, arranged in the requested order
4, 1, 2, 3
(4: 263 °C, 1: 133 °C, 2: 72 °C, 3: 10 °C)

a = c1ccc2cc(SSc3ccc4ccccc4c3)ccc2c1
b = CC1CCC(C(C)C)C(=O)C1 (single isomer, unassigned; (-))
Lowest melting point? choose a or b Bench note: the answer is the label of the chosen record.
b
